Where do the numbers come from? From patent US20250129067A1.

Measured pIC50, listed per entry.
# Experimental system: PDGFRα (Homo sapiens (Human), UniProt P16234)
# Sequence (P16234 24-1089): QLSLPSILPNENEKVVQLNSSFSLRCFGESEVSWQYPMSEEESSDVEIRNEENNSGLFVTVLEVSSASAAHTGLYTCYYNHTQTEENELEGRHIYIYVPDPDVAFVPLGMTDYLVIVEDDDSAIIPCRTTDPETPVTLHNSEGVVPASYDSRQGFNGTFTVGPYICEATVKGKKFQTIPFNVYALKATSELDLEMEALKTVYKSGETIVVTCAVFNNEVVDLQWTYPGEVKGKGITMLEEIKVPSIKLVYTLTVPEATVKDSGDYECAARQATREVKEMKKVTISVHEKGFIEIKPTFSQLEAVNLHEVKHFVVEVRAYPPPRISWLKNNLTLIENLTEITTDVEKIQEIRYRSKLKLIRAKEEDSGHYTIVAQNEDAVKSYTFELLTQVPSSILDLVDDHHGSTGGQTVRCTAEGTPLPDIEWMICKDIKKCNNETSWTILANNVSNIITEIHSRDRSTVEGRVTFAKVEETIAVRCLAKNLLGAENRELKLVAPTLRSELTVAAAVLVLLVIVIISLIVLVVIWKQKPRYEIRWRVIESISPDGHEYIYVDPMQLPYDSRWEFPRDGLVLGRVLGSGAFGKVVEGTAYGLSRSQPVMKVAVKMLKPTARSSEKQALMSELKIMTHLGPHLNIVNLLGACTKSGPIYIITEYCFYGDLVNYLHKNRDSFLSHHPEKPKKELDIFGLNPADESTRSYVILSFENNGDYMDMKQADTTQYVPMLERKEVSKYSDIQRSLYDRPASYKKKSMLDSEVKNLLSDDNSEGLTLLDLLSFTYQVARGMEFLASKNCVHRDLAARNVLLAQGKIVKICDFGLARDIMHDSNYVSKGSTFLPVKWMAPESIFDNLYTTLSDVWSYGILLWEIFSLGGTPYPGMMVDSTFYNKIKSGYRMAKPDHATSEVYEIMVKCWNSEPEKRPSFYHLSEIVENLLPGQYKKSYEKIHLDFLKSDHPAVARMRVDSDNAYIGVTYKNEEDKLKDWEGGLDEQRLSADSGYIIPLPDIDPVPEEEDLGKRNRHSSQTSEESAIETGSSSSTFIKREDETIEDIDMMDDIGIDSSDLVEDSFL
# Method description: PDGFRα kinase enzyme assay (Promega PDGFRα Kinase Enzyme System, ADP-Glo)
# Format: biochemical
# Run conditions: 20 ng purified PDGFRα, 150 uM ATP, Poly (Glu4Tyr1) substrate, two hours, 11-point dose response; read-out: IC50 Values on PDGFRα Kinase Inhibition
pIC50: −log10 of the molar value.

- Molecule: "Cn1cc(-c2ccc3c(N4CCN(C(=O)OC(C)(C)C)CC4)cnn3c2)cn1"
  Experimental system: "PDGFRα (Homo sapiens (Human), UniProt P16234)"
  pIC50: "> 6.00"
- Molecule: "Cn1cc(-c2ccc3c(N4CCN(C(=O)OCC(C)(C)C)CC4)cnn3c2)cn1"
  Experimental system: "PDGFRα (Homo sapiens (Human), UniProt P16234)"
  pIC50: "> 6.00"
- Molecule: "COc1cc2c(cc1OC)-c1[nH]nc(Nc3cccc(F)c3)c1C2 [JNJ-10198409, JNJ=10198409, reference compound]"
  Experimental system: "PDGFRα (Homo sapiens (Human), UniProt P16234)"
  pIC50: "< 5.00"

###

# Experimental system: PDGFRα (Homo sapiens (Human), UniProt P16234)
# Method description: PDGFRα kinase enzyme assay (Promega PDGFRα Kinase Enzyme System, ADP-Glo)
# Format: biochemical
# Run conditions: 11-point dose response, 10,000 nM to 0.169 nM; 150 uM ATP; BLQ = below limit of quantitation; read-out: IC50 Values on PDGFRα Kinase Inhibition, IC50
pIC50: −log10 of the molar value.
As shown below, each of these compounds has a reported pIC50 value.
Reported property: pIC50

- Compound: "Cn1cc(-c2ccc3c(N4CCN(c5ncc(C(=O)c6ccc(F)cc6)cn5)CC4)cnn3c2)cn1 [Compound 25]"
  Reported property: "pIC50"
  Data value: "< 5.00"
- Compound: "COCCn1cncc1-c1ccc2c(N3CCN(C(=O)OC(C)(C)C)CC3)cnn2c1 [Compound 228]"
  Reported property: "pIC50"
  Data value: "< 5.00"
- Compound: "CC(C)(C)OC(=O)N1CCN(c2cnn3cc(C4CCOC4)ccc23)CC1 (stereo not shown) [Compound 304]"
  Reported property: "pIC50"
  Data value: "< 5.00"
- Compound: "C[C@@H](OC(=O)N1CCN(c2cnn3cc(-c4cnn(C)c4)ccc23)CC1)c1ccc(Cl)cc1 [Compound 78]"
  Reported property: "pIC50"
  Data value: "> 9.77"
- Compound: "CN(Cc1ccccc1)S(=O)(=O)N1CCN(c2cnn3cc(-c4cnn(C)c4)ccc23)CC1 [Compound 158]"
  Reported property: "pIC50"
  Data value: "< 5.00"
- Compound: "Cn1cc(-c2ccc3c(C4CCC(C(=O)OCc5ccccc5)C4)cnn3c2)cn1 (stereo not shown) [Compound 137]"
  Reported property: "pIC50"
  Data value: 5.30
- Compound: "Cn1cc(-c2ccc3c(NC4CN(c5ncc(Cc6ccccc6)cn5)C4)cnn3c2)cn1 [Compound 131]"
  Reported property: "pIC50"
  Data value: 5.41
- Compound: "CN(Cc1ccccc1)C(=O)C1CCC(c2cnn3cc(-c4cnn(C)c4)ccc23)C1 (stereo not shown) [Compound 140]"
  Reported property: "pIC50"
  Data value: "< 5.00"
- Compound: "Cn1cc(-c2cc3ncc(N4CCN(C(=O)NCc5ccc(C(F)(F)F)cc5)CC4)n3cn2)cn1 [Compound 118]"
  Reported property: "pIC50"
  Data value: "< 5.00"
- Compound: "CN(CCNc1ncc(Cc2ccccc2)cn1)c1cnn2cc(-c3cnn(C)c3)ccc12 [Compound 125]"
  Reported property: "pIC50"
  Data value: "< 5.00"

###

# Experimental system: PDGFRα (Homo sapiens (Human))
# Method description: PDGFRα kinase enzyme assay (Promega PDGFRα Kinase Enzyme System, ADP-Glo)
# Format: biochemical
# Run conditions: 11-point dose response, 10,000 nM to 0.169 nM; 150 uM ATP; BLQ = below limit of quantitation; read-out: IC50 Values on PDGFRα Kinase Inhibition, IC50
pIC50: −log10 of the molar value.
# pIC50 annotations
Reported property: pIC50

- Compound: "COCCn1cc(-c2ccn3c(N4CCCN(C(=O)OC(C)(C)C)CC4)cnc3n2)cn1 [Compound 105]"
  Reported property: "pIC50"
  Modifier sign: "<"
  Data value: 5.00
- Compound: "Cn1cc(-c2ccc3c(N4CCN(c5ncc(CC(O)c6ccccc6)cn5)CC4)cnn3c2)cn1 (stereo not drawn) [Compound 164]"
  Reported property: "pIC50"
  Modifier sign: "="
  Data value: 6.11
- Compound: "CCC(CC)C(O)c1cnc(N2CCN(c3cnn4cc(-c5cnn(C)c5)ccc34)CC2)nc1 (stereo not drawn) [Compound 177]"
  Reported property: "pIC50"
  Modifier sign: "="
  Data value: 7.12
- Compound: "Cn1cc(-c2ccc3c(C4=CCC(C(=O)OCc5ccccc5)CC4)cnn3c2)cn1 (stereo not drawn) [Compound 132]"
  Reported property: "pIC50"
  Modifier sign: "="
  Data value: 6.13
- Compound: "CC(C)(C)OC(=O)N1CCN(c2cnn3cc(CCCN4CCCC4)ccc23)CC1 [Compound 205]"
  Reported property: "pIC50"
  Modifier sign: "<"
  Data value: 5.00
- Compound: "CCCCC(O)c1cnc(N2CCN(c3cnn4cc(-c5cnn(C)c5)ccc34)CC2)nc1 (stereo not drawn) [Compound 168]"
  Reported property: "pIC50"
  Modifier sign: "="
  Data value: 6.98
- Compound: "Cn1cc(-c2cn3ncc(N4CCN(c5ncc(Cc6ccccc6)cn5)CC4)c3cn2)cn1 [Compound 22]"
  Reported property: "pIC50"
  Modifier sign: "<"
  Data value: 5.00
- Compound: "Cn1cc(-c2ccc3c(N4CCN(C(=O)OC(C)(C)C)CCC4=O)cnn3c2)cn1 [Compound 27]"
  Reported property: "pIC50"
  Modifier sign: "<"
  Data value: 5.00
- Compound: "Cn1cc(-c2ccc3c(N4CCN(C(=O)O[C@@H]5CCc6cc(Cl)ccc65)CC4)cnn3c2)cn1 [Compound 314]"
  Reported property: "pIC50"
  Modifier sign: "="
  Data value: 5.12

###

# Test system: Oligodendrocyte progenitor cells (OPCs)
# Method description: In vitro OPC differentiation assay, MBP expression (immunocytochemistry)
# Run conditions: 72 hours of treatment; fold change over vehicle

- Compound: "CC(=O)OC(c1ccc(F)cc1)c1cnc(N2CCN(c3cnn4cc(-c5cnn(C)c5)ccc34)CC2)nc1 (stereo not shown)"
  MBP Fold Induction (Over vehicle): 5.22
- Compound: "Cn1cc(-c2ccc3c(N4CCN(c5ncc(C(O)c6ccccn6)cn5)CC4)cnn3c2)cn1 (stereo not shown)"
  MBP Fold Induction (Over vehicle): 2.56
- Compound: "C[C@H](OC(=O)N1CCN(c2cnn3cc(-c4cnn(C)c4)ccc23)CC1)c1ccc(Cl)cc1"
  MBP Fold Induction (Over vehicle): 2.21
- Compound: "OCCn1cc(-c2ccc3c(N4CCN(c5ncc(Cc6ccccc6)cn5)CC4)cnn3c2)cn1"
  MBP Fold Induction (Over vehicle): 5.64
- Compound: "C[C@@H](OC(=O)N1CCN(c2cnn3nc(-c4cnn(C)c4)ccc23)CC1)c1ccccc1"
  MBP Fold Induction (Over vehicle): 1.82
- Compound: "C[C@H](OC(=O)N1CCN(c2cnn3cc(-c4cnn(C)c4)ccc23)CC1)c1ccccc1"
  MBP Fold Induction (Over vehicle): 2.00
- Compound: "Cn1cc(-c2ccc3c(N4CCN(c5ncc(Cc6cccs6)cn5)CC4)cnn3c2)cn1"
  MBP Fold Induction (Over vehicle): 7.25

###

# Experimental system: PDGFRα (Homo sapiens (Human))
# Method description: PDGFRα kinase enzyme assay (Promega PDGFRα Kinase Enzyme System, ADP-Glo)
# Format: biochemical
# Run conditions: 11-point dose response, 10,000 nM to 0.169 nM; 150 uM ATP; BLQ = below limit of quantitation; read-out: IC50 Values on PDGFRα Kinase Inhibition, IC50
Reported property: IC50 (nM)

- Compound: "Cn1cc(-c2ccn3ncc(N4CCN(c5ncc(Cc6ccccc6)cn5)CC4)c3c2)cn1"
  Experimental system: "PDGFRα (Homo sapiens (Human))"
  Modifier sign: ">"
  Data value: 10000
- Compound: "Cn1cc(-c2ccc3c(N4CCN(c5ncnn5Cc5ccccc5)CC4)cnn3c2)cn1"
  Experimental system: "PDGFRα (Homo sapiens (Human))"
  Modifier sign: ">"
  Data value: 10000
- Compound: "CN(CCN(C)c1cnn2cc(-c3cnn(C)c3)ccc12)c1ncc(Cc2ccccc2)cn1"
  Experimental system: "PDGFRα (Homo sapiens (Human))"
  Modifier sign: ">"
  Data value: 10000
- Compound: "CC1CC(COC(=O)N2CCN(c3cnn4cc(-c5cnn(C)c5)ccc34)CC2)C1 (centres unmarked)"
  Experimental system: "PDGFRα (Homo sapiens (Human))"
  Modifier sign: ">"
  Data value: 10000
- Compound: "C[C@H](c1ccc(Cl)cc1)N(C)C(=O)N1CCN(c2cnn3cc(-c4cnn(C)c4)ccc23)CC1"
  Experimental system: "PDGFRα (Homo sapiens (Human))"
  Modifier sign: "="
  Data value: 2700
- Compound: "Cn1cc(-c2ccc3c(N4CCN(c5ncc(Cc6ccccc6)cn5)CC4)nnn3c2)cn1"
  Experimental system: "PDGFRα (Homo sapiens (Human))"
  Modifier sign: ">"
  Data value: 10000
- Compound: "CC(C)(C)OC(=O)N1CCN(c2cnn3cc(C4CCC(O)C4)ccc23)CC1 (centres unmarked)"
  Experimental system: "PDGFRα (Homo sapiens (Human))"
  Modifier sign: ">"
  Data value: 10000
- Compound: "Cn1cc(-c2ccc3c(N4CCN(c5ncc([C@@H](O)[C@@H]6CCCOC6)cn5)CC4)cnn3c2)cn1"
  Experimental system: "PDGFRα (Homo sapiens (Human))"
  Modifier sign: "="
  Data value: 69.1
- Compound: "CC(C)C(O)c1cnc(N2CCN(c3cnn4cc(-c5cnn(C)c5)ccc34)CC2)nc1 (centres unmarked)"
  Experimental system: "PDGFRα (Homo sapiens (Human))"
  Modifier sign: "="
  Data value: 2080
- Compound: "Cn1cc(-c2ccc3c(N4CCN(c5nc(Cc6ccccc6)ns5)CC4)cnn3c2)cn1"
  Experimental system: "PDGFRα (Homo sapiens (Human))"
  Modifier sign: ">"
  Data value: 10000
- Compound: "COC(c1ccc(F)cc1)c1cnc(N2CCN(c3cnn4cc(-c5cnn(C)c5)ccc34)CC2)nc1 (centres unmarked)"
  Experimental system: "PDGFRα (Homo sapiens (Human))"
  Modifier sign: "="
  Data value: 517
- Compound: "Cn1cc(-c2ccc3c(N4CCN(c5ncc(Cc6cocn6)cn5)CC4)cnn3c2)cn1"
  Experimental system: "PDGFRα (Homo sapiens (Human))"
  Modifier sign: ">"
  Data value: 10000
- Compound: "COc1ccc(-c2ccc3c(N4CCN(C(=O)OC(C)(C)C)CC4)cnn3c2)cc1"
  Experimental system: "PDGFRα (Homo sapiens (Human))"
  Modifier sign: "="
  Data value: 7480
- Compound: "CC(C)(C)OC(=O)N1CCN(c2cnn3cc(-c4ccccc4F)ccc23)CC1"
  Experimental system: "PDGFRα (Homo sapiens (Human))"
  Modifier sign: ">"
  Data value: 10000
- Compound: "Cn1cc(-c2ccc3c(N4CCN(C(=O)OCc5ccc(C#N)cc5)CC4)cnn3c2)cn1"
  Experimental system: "PDGFRα (Homo sapiens (Human))"
  Modifier sign: "="
  Data value: 194
- Compound: "[2H]c1c([2H])c(C(OC(=O)N2CCN(c3cnn4cc(-c5cnn(C)c5)ccc34)CC2)C([2H])([2H])[2H])c([2H])c([2H])c1Cl (centres unmarked)"
  Experimental system: "PDGFRα (Homo sapiens (Human))"
  Modifier sign: "="
  Data value: 0.016
- Compound: "CC(C)(C)OC(=O)N1CCN(c2cnn3cc(-c4cncn4CCCN4CCOCC4)ccc23)CC1"
  Experimental system: "PDGFRα (Homo sapiens (Human))"
  Modifier sign: ">"
  Data value: 10000
- Compound: "Cn1cc(-c2ccc3c(N4CCN(c5ccc(Cc6ccccc6)cn5)CC4)cnn3c2)cn1"
  Experimental system: "PDGFRα (Homo sapiens (Human))"
  Modifier sign: "="
  Data value: 1260
- Compound: "Cn1cc(-c2ccc3c(N4CCN(c5ncc(C(N)c6ccc(F)cc6)cn5)CC4)cnn3c2)cn1 (centres unmarked)"
  Experimental system: "PDGFRα (Homo sapiens (Human))"
  Modifier sign: "="
  Data value: 937
- Compound: "CC(C)(C)OC(=O)N1CCN(c2cnn3cc(C4CC4)ccc23)CC1"
  Experimental system: "PDGFRα (Homo sapiens (Human))"
  Modifier sign: ">"
  Data value: 10000
- Compound: "CC(C)NC(=O)N1CCN(c2cnn3cc(-c4cnn(C)c4)ccc23)CC1"
  Experimental system: "PDGFRα (Homo sapiens (Human))"
  Modifier sign: "="
  Data value: 3990
- Compound: "Cn1cc(-c2ccc3c(N4CCN(C(=O)OCC5CC(F)(F)C5)CC4)cnn3c2)cn1"
  Experimental system: "PDGFRα (Homo sapiens (Human))"
  Modifier sign: "="
  Data value: 2110
- Compound: "Cn1cc(-c2ccc3c(N4CCN(c5ncc(Cc6ccc(F)cc6)cn5)CC4)cnn3c2)cn1"
  Experimental system: "PDGFRα (Homo sapiens (Human))"
  Modifier sign: "="
  Data value: 693
